Hello, the source for this data is patent US9974778B2, in case you need it.

Target: Human MGAT-2 (Homo sapiens, UniProt Q3SYC2)
Construct: made in house; host or cells: Sf9 cells (membrane preparation)
Sequence (Q3SYC2 whole entry): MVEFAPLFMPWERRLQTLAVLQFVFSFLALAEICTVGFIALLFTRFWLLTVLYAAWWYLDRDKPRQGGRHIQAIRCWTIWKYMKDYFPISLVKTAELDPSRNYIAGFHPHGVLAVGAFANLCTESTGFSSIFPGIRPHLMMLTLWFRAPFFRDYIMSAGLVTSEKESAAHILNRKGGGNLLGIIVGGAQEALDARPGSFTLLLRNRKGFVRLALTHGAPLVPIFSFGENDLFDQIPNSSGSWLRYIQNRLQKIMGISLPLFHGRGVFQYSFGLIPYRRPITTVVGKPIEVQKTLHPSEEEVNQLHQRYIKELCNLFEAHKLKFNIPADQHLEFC
Assay: MGAT LCMS Assay
Format: biochemical
Conditions: human MGAT2 membranes expressed in Sf9 cells; 100 μM 2-oleoylglycerol, 15 μM oleoyl-coenzyme A; read-out: h-MGAT LCMS IC50
Description: Assay plates were run through a fully automated robotics system and shaken for 5 seconds every minute for a total 10 minutes. The reactions were then quenched with 120 μL of ice cold methanol containing 1 μg/mL 1,2-distearoyl-rac-glycerol as the internal standard. Plates were shaken for 2 minutes and spun down to remove protein precipitation. After the spin, samples were transferred to LC/MS compatible PCR plates. […]
IC50 vs 10 nM: less than gives True; not less than gives False.

IC50 under 10 nM? Item: CN(C)c1ncc(-c2cc(C3CCCCC3)[nH]c(=O)c2C(=O)Nc2ccc(OC(F)(F)F)cc2)s1 [Example 82]
True

IC50 under 10 nM? Item: Cc1ccc(-c2cc(-c3ccc(OCCCC(F)(F)F)cc3C(F)(F)F)[nH]c(=O)c2C(=O)Nc2ccc(OC(F)(F)F)cc2)cc1 [Example 111]
True

IC50 under 10 nM? Item: C=Cc1c(-c2ccc(CCCCC)cc2)[nH]c(=O)c(C(=O)Nc2ccc(OCC)cc2)c1-c1ccc(C)cc1 [Example 26]
False

IC50 under 10 nM? Item: O=c1[nH]c(-c2ccc(OCCCCCC(F)(F)F)cc2)cc(-c2ccn(C3CC3)n2)c1-c1nnn[nH]1 [Example 107]
False

IC50 under 10 nM? Item: O=C(Nc1ccc(OC(F)(F)F)cc1)c1c(-c2cnn(C3CC3)c2)cc(-c2ccc(OCCCC(F)(F)F)cc2)[nH]c1=O [Example 95]
False

IC50 under 10 nM? Item: Cc1ccc(-c2c(Br)c(-c3ccc(OCCCC(F)(F)F)cc3)[nH]c(=O)c2-c2nnn[nH]2)cc1 [Example 6]
False
